Experiment: Apparent permeability across apical to basolateral side in human Caco-2 cells at 5 uM incubated for 2 hrs by LC-MS/MS analysis
Format: ADME, cell-based
So I've got a bunch of molecules here, and I need their Papp A→B at 2 h, 5 µM values.
Numbers only, in ×10⁻⁶ cm/s.

Sample answers from the record:
Inquiry: Give the measured Papp A→B at 2 h, 5 µM for `CCn1c(-c2cc(N3CCN(C)CC3)cnc2[C@H](C)OC)c2c3cc(ccc31)-c1csc(n1)C[C@H](NC(=O)[C@H]1CCO1)C(=O)N1CCC[C@H](N1)C(=O)OCC(C)(C)C2`
Reply text: 0.4

Inquiry: Give the measured Papp A→B at 2 h, 5 µM for `CCn1c(-c2cc(N3CCN(C4CC4)CC3)cnc2[C@H](C)OC)c2c3cc(ccc31)-c1csc(n1)C[C@H](NC(=O)[C@H]1[C@@H]3COC[C@@H]31)C(=O)N1CCC[C@H](N1)C(=O)OCC(C)(C)C2`
Reply text: 0.9

Inquiry: Give the measured Papp A→B at 2 h, 5 µM for `CCn1c(-c2cc(N3CC4CC(C3)N4C)cnc2[C@H](C)OC)c2c3cc(ccc31)-c1csc(n1)C[C@H](NC(=O)[C@H]1C[C@@H]1C)C(=O)N1CCC[C@H](N1)C(=O)OCC(C)(C)C2`
Reply text: 0.2

Inquiry: Give the measured Papp A→B at 2 h, 5 µM for `CCn1c(-c2cccnc2[C@H](C)OC)c2c3cc(ccc31)-c1csc(n1)C[C@H](NC(=O)[C@H](C(C)C)N(C)C(=O)N1CC(OC)C1)C(=O)N1CCC[C@H](N1)C(=O)OCC(C)(C)C2`
Reply text: 0.6

Inquiry: Give the measured Papp A→B at 2 h, 5 µM for `CCn1c(-c2cc(N3CCN(C)CC3)cnc2[C@H](C)OC)c2c3cc(ccc31)-c1csc(n1)C[C@H](NC(=O)[C@H]1C[C@@H]1C)C(=O)N1CCC[C@H](N1)C(=O)OCC(C)(C)C2`
Reply text: 0.4

Inquiry: Give the measured Papp A→B at 2 h, 5 µM for `CCn1c(-c2cc(N3CCN(C4COC4)CC3)cnc2[C@H](C)OC)c2c3cc(ccc31)-c1csc(n1)C[C@H](NC(=O)[C@H]1C[C@@H]1C)C(=O)N1CCC[C@H](N1)C(=O)OCC(C)(C)C2`
Reply text: 0.6

// next item, Papp A→B at 2 h, 5 µM requested
Inquiry: Give the measured Papp A→B at 2 h, 5 µM for `CCn1c(-c2cccnc2[C@H](C)OC)c2c3cc(ccc31)-c1csc(n1)C[C@H](NC(=O)[C@H](C(C)C)N(C)C(=O)OC)C(=O)N1CCC[C@H](N1)C(=O)OCC(C)(C)C2`
Reply text: 0.08
